Recorded values, source ChEMBL document CHEMBL3856258.

# method summary: Cytotoxicity against CHL cells assessed as growth rate at 211 ug/ml preincubated for 6 hrs followed by 18 hrs incubation in fresh medium in absence of S9 fraction by MTT assay relative to control
# Assay type: toxicity, cell-based, Cricetulus griseus
# details: chinese hamster, read-out: Activity

- molecule: "COP(=O)(CCC(N)C(=O)O)Oc1cccc(CC(=O)O)c1 (stereo unspecified)"
  viability at 18 h, 211 ug/ml, %: 101

----------
# method summary: Cytotoxicity against CHL cells assessed as growth rate at 84.5 ug/ml after 24 hrs in absence of S9 fraction by MTT assay relative to control
# Format: toxicity, cell-based, Cricetulus griseus
# details: chinese hamster, read-out: Activity

- molecule: "COP(=O)(CCC(N)C(=O)O)Oc1cccc(CC(=O)O)c1 (stereo unspecified)"
  measurement unit: "%"
  viability at 24 h, 84.5 ug/ml: 101
